- system: PTPσ (Homo sapiens, UniProt Q13332)
- Construct: GST-tagged recombinant PTPσ, all residues C-terminal to the transmembrane domain (BC104812 cDNA; aa 883-1501)
- Sequence (Q13332 1330-1948): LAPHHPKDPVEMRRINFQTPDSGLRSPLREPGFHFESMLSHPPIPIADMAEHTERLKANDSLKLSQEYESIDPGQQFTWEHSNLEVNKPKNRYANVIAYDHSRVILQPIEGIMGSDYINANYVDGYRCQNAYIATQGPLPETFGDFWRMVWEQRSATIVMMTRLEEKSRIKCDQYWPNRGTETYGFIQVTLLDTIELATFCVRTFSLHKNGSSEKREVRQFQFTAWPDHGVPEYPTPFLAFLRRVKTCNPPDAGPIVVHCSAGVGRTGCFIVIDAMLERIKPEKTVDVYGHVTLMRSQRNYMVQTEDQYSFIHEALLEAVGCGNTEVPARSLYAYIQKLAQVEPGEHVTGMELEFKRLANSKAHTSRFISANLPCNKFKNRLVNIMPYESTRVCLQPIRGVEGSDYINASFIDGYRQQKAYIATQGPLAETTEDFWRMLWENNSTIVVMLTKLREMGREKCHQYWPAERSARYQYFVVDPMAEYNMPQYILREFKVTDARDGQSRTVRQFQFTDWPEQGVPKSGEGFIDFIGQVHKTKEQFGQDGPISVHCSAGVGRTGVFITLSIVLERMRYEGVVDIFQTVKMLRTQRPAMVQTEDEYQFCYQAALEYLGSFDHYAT
- testMethodNotes: pNPP phosphatase assay with purified GST-PTPσ, dose-response, with and without catalase
recordedEndpoint: IC50 (µM)
// units = µM; emit number, no label

Quick one: IC50 of O=C(C=CNc1cc([N+](=O)[O-])ccc1O)c1ccc(Cl)c(Cl)c1 ?
10
